Target Of Assay: human FPR1 (Homo sapiens (Human), UniProt P21462)
Sequence (P21462 whole entry): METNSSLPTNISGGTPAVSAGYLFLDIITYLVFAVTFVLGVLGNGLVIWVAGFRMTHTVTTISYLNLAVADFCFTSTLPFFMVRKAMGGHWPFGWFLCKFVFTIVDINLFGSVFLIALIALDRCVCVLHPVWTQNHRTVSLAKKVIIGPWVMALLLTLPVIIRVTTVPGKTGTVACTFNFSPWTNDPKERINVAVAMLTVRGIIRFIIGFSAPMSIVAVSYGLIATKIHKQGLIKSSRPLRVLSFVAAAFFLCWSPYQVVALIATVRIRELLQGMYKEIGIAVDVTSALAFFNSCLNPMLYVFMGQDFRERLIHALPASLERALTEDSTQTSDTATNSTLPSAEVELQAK
Test Method Notes: FPR1 cyclic adenosine monophosphate (cAMP) assay
Test Conditions: CHO cells overexpressing human FPR1; forskolin 10 µM; inhibition of cAMP production; read-out: hFPR1 cAMP EC50
Quick reference for EC50 among some compounds

Chemical String	EC50 / nM
COc1cc(F)c([C@@H]2CN(c3cncn(C4CCOCC4)c3=O)C(=O)[C@H]2NC(=O)c2ccc(Cl)cc2)c(F)c1	1200
COc1cc(F)c([C@@H]2CN(c3cccn(CCN(C)C)c3=O)C(=O)[C@H]2NC(=O)c2ccc(OC(F)F)cc2)c(F)c1	350
COc1cc(F)c([C@@H]2CN(c3nc(N4C[C@@H](C)N(C)[C@@H](C)C4)ccc3OC)C(=O)[C@H]2NC(=O)c2ccc(OC(F)F)cc2)c(F)c1	630
